Give measured self-cleavage for each item. Keep answers brief.
B1: CPEB3 Ribozyme (parent)
chain: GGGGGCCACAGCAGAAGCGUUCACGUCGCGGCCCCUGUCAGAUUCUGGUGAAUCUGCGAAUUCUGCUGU

# Variants of: B1
# EXPERIMENTAL DETAILS: self-cleavage, relative activity (ratio to wild type); higher = more cleavage; co-transcriptional
# answer = number (no unit)

Entry G47C G50U needs its self-cleavage filled in; supply it.
0.998

Please give the documented self-cleavage of U44C U64G
0.719

Please report self-cleavage for the following variant: C39G A52C
0.89

State, in one line, measured self-cleavage of G5U A51G
0.198

Could you please provide reported self-cleavage for U43A G47C ? Thanks!
0.954

Quick one: give measured self-cleavage for G4U G11C
0.228

Retrieve self-cleavage measured for A23U U67C and print it.
1

Indicate its recorded self-cleavage; the variant in question is A15U U49A
0.931

For the variant A42C G56C , give its measured self-cleavage value.
0.325

Give the reported value of self-cleavage for this record: C18A C45U
0.21

Supply recorded self-cleavage for G1A C33G here.
0.0474

Given the variant G14C U21G , write its reported self-cleavage.
0.11

Identify self-cleavage associated with the variant A15G G25C
0.133

Specify measured self-cleavage for G17C C54A .
0.1

Please indicate self-cleavage recorded for A16G U44A
0.835

Retrieve self-cleavage measured for G17U A59G and print it.
0.357

For the variant A16U U49C , give its reported self-cleavage.
0.834

Quote self-cleavage reported for C29G G48A please.
0.667

Indicate its recorded self-cleavage; the variant in question is C29G U46G
0.603

For the variant G1A G31A , report self-cleavage.
0.0627

Supply self-cleavage value. Item: A59U U64C
0.558

Provide one value: measured self-cleavage of G37U G56U
0.224
